Cited source for all entries: PubChem BioAssay AID1918994

Test system: 292921-168-R-J2-PDC complex spheroid growth
ASSAY COMMENT: Anticancer human tumor 292921-168-R-J2-PDC patient-derived pancreatic carcinoma cell line growth inhibition [AhR]
DETAILS: second compound 3.16 µM; first compound 3.16 µM; stronger effect = lower value
I'd appreciate it if you marked entries Criterion met when viability, T/C is lower than 30% and Criterion not met when it is not.

Below, 7 compounds whose answers are already recorded.
INSERT INTO measurements (compound, assigned_label) VALUES
  ('COc1cc(Nc2ncc3c(n2)-c2ccc(Cl)cc2C(c2c(F)cccc2OC)=NC3)ccc1C(=O)O + CC(CO)NC(=O)c1cc(-c2ccc(Cl)cc2)nn(-c2cnn(C)c2)c1=O', 'Criterion not met'),
  ('Nc1ccn(C2OC(CO)C(O)C2(F)F)c(=O)n1 (stereo not drawn) + Cc1ccccc1N=Nc1ccc(NC(=O)c2ccnn2C)c(C)c1', 'Criterion met'),
  ('Nc1ccccc1NC(=O)c1ccc(CNC(=O)OCc2cccnc2)cc1 + Cc1ccccc1N=Nc1ccc(NC(=O)c2ccnn2C)c(C)c1', 'Criterion met'),
  ('CC1COCCN1c1cc(C2(S(C)(=N)=O)CC2)nc(-c2ccnc3[nH]ccc23)n1 (stereo not drawn) + Cc1cncc(-c2nc(NCCc3c[nH]c4ccccc34)c3ncn(C(C)C)c3n2)c1', 'Criterion not met'),
  ('COc1cc(Nc2ncc3c(n2)-c2ccc(Cl)cc2C(c2c(F)cccc2OC)=NC3)ccc1C(=O)O + Cc1ccccc1N=Nc1ccc(NC(=O)c2ccnn2C)c(C)c1', 'Criterion not met'),
  ('Nc1ccn(C2OC(CO)C(O)C2(F)F)c(=O)n1 (stereo not drawn) + CC(CO)NC(=O)c1cc(-c2ccc(Cl)cc2)nn(-c2cnn(C)c2)c1=O', 'Criterion met'),
  ('COc1cccc2c1C(=O)c1c(O)c3c(c(O)c1C2=O)CC(O)(C(=O)CO)CC3OC1CC(N)C(O)C(C)O1 (stereo not drawn) + Cc1cncc(-c2nc(NCCc3c[nH]c4ccccc34)c3ncn(C(C)C)c3n2)c1', 'Criterion met');

# evaluate next
Lab note: viability, T/C threshold 30%. Does this compound come in strictly under it? O=C(C=Cc1cccc(S(=O)(=O)Nc2ccccc2)c1)NO + Cc1cncc(-c2nc(NCCc3c[nH]c4ccccc34)c3ncn(C(C)C)c3n2)c1
Criterion not met

====

Test system: 292921-168-R-J2-PDC complex spheroid growth
ASSAY COMMENT: Anticancer human tumor 292921-168-R-J2-PDC cell line growth inhibition [AhR]; active = viability on the fitted dose curve at most 10% of control; inactive = the rest;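 further: spheroids exposed to compounds for seven days after three days of growth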
DETAILS: second compound 0.316 µM; first compound 10 µM
Select the matching outcome among Y (active), N (inactive)

Reference set (5 entries):
INSERT INTO assay_data (compound, assigned_label) VALUES
  ('O=C(C=Cc1cccc(S(=O)(=O)Nc2ccccc2)c1)NO + Cc1ccccc1N=Nc1ccc(NC(=O)c2ccnn2C)c(C)c1', 'Y'),
  ('COc1cc(C2c3cc4c(cc3C(OC3OC5COC(C)OC5C(O)C3O)C3COC(=O)C23)OCO4)cc(OC)c1O (stereo unspecified) + Cc1cncc(-c2nc(NCCc3c[nH]c4ccccc34)c3ncn(C(C)C)c3n2)c1', 'N'),
  ('O=C(c1cc(Cc2n[nH]c(=O)c3ccccc23)ccc1F)N1CCN(C(=O)C2CC2)CC1 + CC(CO)NC(=O)c1cc(-c2ccc(Cl)cc2)nn(-c2cnn(C)c2)c1=O', 'N'),
  ('O=C(C=Cc1cccc(S(=O)(=O)Nc2ccccc2)c1)NO + CC(CO)NC(=O)c1cc(-c2ccc(Cl)cc2)nn(-c2cnn(C)c2)c1=O', 'Y'),
  ('Nc1ccn(C2OC(CO)C(O)C2(F)F)c(=O)n1 (stereo unspecified) + Cc1ccccc1N=Nc1ccc(NC(=O)c2ccnn2C)c(C)c1', 'Y');

Now look at this one.
Given NS(=O)(=O)OCC1CC(n2ccc3c(NC4CCc5ccccc54)ncnc32)CC1O (stereo unspecified) + CC(CO)NC(=O)c1cc(-c2ccc(Cl)cc2)nn(-c2cnn(C)c2)c1=O , state the outcome it received in this test.
Y
